Sourced from patent US6392045B1

Task for the reader: assign each of the following compounds its reported IC50.
# ASSAYED_TARGET: nAChR formed by the α7 subunit isoform (Rattus norvegicus)
# Sequence (Q05941 23-502): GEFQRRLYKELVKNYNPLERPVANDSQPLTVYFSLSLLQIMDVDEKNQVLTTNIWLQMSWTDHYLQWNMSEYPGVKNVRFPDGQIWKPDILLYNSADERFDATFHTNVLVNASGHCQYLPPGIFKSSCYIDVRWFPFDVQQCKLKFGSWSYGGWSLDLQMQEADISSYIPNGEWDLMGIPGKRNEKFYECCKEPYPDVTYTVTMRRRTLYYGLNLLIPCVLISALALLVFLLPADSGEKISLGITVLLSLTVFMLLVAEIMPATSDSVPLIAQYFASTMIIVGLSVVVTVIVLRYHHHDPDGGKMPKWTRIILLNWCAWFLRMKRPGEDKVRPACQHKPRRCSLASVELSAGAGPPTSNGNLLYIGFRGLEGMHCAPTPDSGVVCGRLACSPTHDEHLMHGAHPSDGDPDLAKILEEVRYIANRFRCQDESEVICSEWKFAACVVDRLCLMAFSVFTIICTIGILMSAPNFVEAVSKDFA
# RUN_DESCRIPTION: biochemical
# Type: binding
# CONDITION_SUMMARY: read-out: 3H-α-bungarotoxin IC50
Give bare numbers, in nM.

Here is how some compounds turned out for IC50.
C1=C(c2cccnc2)CC2CCCC1N2 (racemic) [Compound 11c]    170
COc1cncc(C2=CC3CCCC(C2)N3)c1 (racemic)    17
CN1C2C=C(c3cncc(-c4ccccc4)c3)CC1CCC2 (racemic)    4100

Please go through the list and note IC50 for each compound.
1. CN1C2C=C(c3cccn3C)CC1CCC2 (racemic)
2. CN1C2C=C(c3ccoc3)CC1CCC2.O=C(O)/C=C/C(=O)O (racemic)
3. CN1C2C=C(c3cncc(-c4ccc(Oc5ccccc5)cc4)c3)CC1CCC2.O=C(O)/C=C/C(=O)O (racemic)
4. CN1C2C=C(c3cccnc3)CC1CCC2.O=C(O)/C=C/C(=O)O (racemic)
5. COc1ccc(C2=CC3CCCC(C2)N3C)cn1 (racemic)
6. CN1C2C=C(c3cncnc3)CC1CCC2.O=C(O)/C=C/C(=O)O (racemic)
7. CC(=O)C1=CC2CCCC(C1)N2C.O=C(O)/C=C/C(=O)O (racemic)
8. CN1[C@@H]2CCC[C@H]1C[C@H](c1cccnc1)C2

Response line:
1900
660
17000
500
2300
1600
4200
1400

Please go through the list and note IC50 for each compound.
1. CN1C2C=C(c3cccc([N+](=O)[O-])c3)CC1CCC2.O=C(O)/C=C/C(=O)O (racemic)
2. CCN1C2C=C(c3cccnc3)CC1CCC2.O=C(O)/C=C/C(=O)O (racemic)
3. CN1C2C=C(c3cncc(-c4cccnc4)c3)CC1CCC2.O=C(O)/C=C/C(=O)O (racemic)
4. COc1cncc(C2=CC3CCCC(C2)N3C)c1 (racemic)
5. CC(=O)Nc1cccc(C2=CC3CCCC(C2)N3C)c1.CC(=O)O (racemic) [Compound 2c, Acetic Acid Salt]

Response line:
[2200, 5800, 17000, 2000, 1700]
